- system.under.test: T1, biotinylated recombinant human IL-12Rβ2 (human, UniProt Q99665 24-622, random biotinylated)
- T1 construct: Recombinant protein produced in-house; also called hIL-12RB2; human IL-12RB2
- T1 sequence: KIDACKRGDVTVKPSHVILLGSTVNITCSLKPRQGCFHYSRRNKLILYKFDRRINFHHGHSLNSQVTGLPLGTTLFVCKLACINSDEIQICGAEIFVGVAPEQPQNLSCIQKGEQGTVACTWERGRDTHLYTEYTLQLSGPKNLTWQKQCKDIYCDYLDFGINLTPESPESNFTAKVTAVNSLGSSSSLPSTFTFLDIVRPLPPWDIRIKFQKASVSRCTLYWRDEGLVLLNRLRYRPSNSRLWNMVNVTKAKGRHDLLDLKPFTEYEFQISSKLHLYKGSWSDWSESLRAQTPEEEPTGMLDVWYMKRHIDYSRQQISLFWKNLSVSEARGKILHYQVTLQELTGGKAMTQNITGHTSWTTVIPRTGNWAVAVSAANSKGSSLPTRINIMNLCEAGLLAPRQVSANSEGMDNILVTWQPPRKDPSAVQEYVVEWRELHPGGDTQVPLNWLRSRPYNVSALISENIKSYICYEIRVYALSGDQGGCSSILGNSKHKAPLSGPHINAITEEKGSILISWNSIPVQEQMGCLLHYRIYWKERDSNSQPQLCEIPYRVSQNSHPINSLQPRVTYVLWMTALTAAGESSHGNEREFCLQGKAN
- protocol.text: BLI, P.E., off-rate ranking
property.name: Response
Form rule: numeric answer, no unit written next to it.

anti-IL-12Rβ2 VHH clone 3CRHS109 (clone ID 20430) (VHH, not shown: small tags and cut ends, periplasmic extract) VHH: QVQLQESGGGLVQPGGSLRLSCAASGFTFSTSGMHWFRQAPGKGLEWVSSIGIIVDSSYYASSVKGRFTISRDNAKNTLYLHMNSLKSEDTAVYYCSKDVTGSSRGQGTQVTVSS: 0.745
anti-IL-12Rβ2 VHH clone 2CRH80 (clone ID 20371) (VHH, not shown: small tags and cut ends, periplasmic extract) VHH: QVQLQESGGGLVQPGGSLRLSCAASGFTFSTSGMHWFRQAPGKGLEWVSSIGIIVGSSYYASSVKGRFTISRDNAKNTLYLHMNSLKSEDTAVYYCSKDVTGSSRGQGTQVTVSS: 0.53
anti-IL-12Rβ2 VHH clone 3CAHS180 (clone ID 20410) (VHH, not shown: small tags and cut ends, periplasmic extract) VHH: QVQLQESGGGLVQAGDSLRLSCAASGRTFDTYIVGWFRQAPGKEREFVSALSWSDDTTIRDDSLRGRFTLSRDNAKNTVYLLMNSLKPEDTAVYYCAAKAKPPAATWSSYRNREWYDYWGQGTQVTVSS: 0.376
anti-IL-12Rβ2 VHH clone 3CRH5 (clone ID 20373) (VHH, not shown: small tags and cut ends, periplasmic extract) VHH: QVQLQESGGGLVQAGGSLVLSCAASGSAALIFLMSWYRQAPGKQRELVAEVSRGGSTTYADSVEGRFTISRDNAKNIVDLQMNSLKPEDTAVYYCKADQNYGDSLRSSWGQGTQVTVSS: 0.491

Per the records, this binder ( anti-IL-12Rβ2 VHH clone 3CRHS156 (clone ID 20437) (VHH, not shown: small tags and cut ends, periplasmic extract) VHH: QVQLQESGGGLVQSGGSLRLSCVSSQTLVGIEAMGWYRQAPGKQRELVALITLNGGTFYADSVKGRFAISRDVAEHMLYLEMNSLNPEDTAVYFCVAGVESDNEEPTYWGQGTQVTVSS ) has Response equal to 0.282

This collection of values is drawn from patent US20260209362A1.
